B1: Transmembrane protein 43 (Homo sapiens), Q9BTV4 (parent)
chain: MAANYSSTSTRREHVKVKTSSQPGFLERLSETSGGMFVGLMAFLLSFYLIFTNEGRALKTATSLAEGLSLVVSPDSIHSVAPENEGRLVHIIGALRTSKLLSDPNYGVHLPAVKLRRHVEMYQWVETEESREYTEDGQVKKETRYSYNTEWRSEIINSKNFDREIGHKNPSAMAVESFMATAPFVQIGRFFLSSGLIDKVDNFKSLSLSKLEDPHVDIIRRGDFFYHSENPKYPEVGDLRVSFSYAGLSGDDPDLGPAHVVTVIARQRGDQLVPFSTKSGDTLLLLHHGDFSAEEVFHRELRSNSMKTWGLRAAGWMAMFMGLNLMTRILYTLVDWFPVFRDLVNIGLKAFAFCVATSLTLLTVAAGWLFYRPLWALLIAGLALVPILVARTRVPAKKLE

variants of: B1; conditions: with ar13b_human ARL13B
readout name: effect of a mutation on the interaction

State, in one line, measured effect of a mutation on the interaction of `I91V`
with no effect

State, in one line, measured effect of a mutation on the interaction of `Y371H`
with no effect

The measured values listed here are drawn from IntAct's records for PubMed 32296183.
